assay name: in vitro
condition description: human, HEL cells
Listing of entries alongside the reported CC50 at 72 h.

>  <sample smiles>
Nc1ccn(C[C@@H](CO)OCP(=O)(O)O)c(=O)n1

>  <measurement>
> 250 µM

$$$$
>  <sample smiles>
NC(=O)c1ncn([C@@H]2O[C@H](CO)[C@@H](O)[C@H]2O)n1

>  <measurement>
> 250 µM

$$$$

Return reported CC50 at 72 h; argument: O=c1[nH]c(=O)n([C@H]2C[C@H](O)[C@@H](CO)O2)cc1-c1cn(-c2c(F)cccc2F)nn1
1.5 µM

Return reported CC50 at 72 h; argument: CC(C)c1ccc(-n2cc(-c3cn([C@H]4C[C@H](O)[C@@H](CO)O4)c(=O)[nH]c3=O)nn2)cc1
7.4 µM

----------
Test system: HeLa
assay name: cells
condition description: Homo sapiens, 96 h
measure: pIC50
// field semantics: pIC50 = negative decimal log of concentration (mol/L)

>  <sample smiles>
CC(C)c1ccc(-n2cc(-c3cn([C@H]4C[C@H](O)[C@@H](CO)O4)c(=O)[nH]c3=O)nn2)cc1

>  <target or system>
HeLa

>  <measure>
pIC50

>  <measurement>
5.21

$$$$
>  <sample smiles>
CCCCc1ccc(-n2cc(-c3cn([C@H]4C[C@H](O)[C@@H](CO)O4)c(=O)[nH]c3=O)nn2)cc1

>  <target or system>
HeLa

>  <measure>
pIC50

>  <measurement>
4.64

$$$$
>  <sample smiles>
O=c1[nH]c(=O)n([C@H]2C[C@H](O)[C@@H](CO)O2)cc1-c1cn(-c2ccccc2)nn1

>  <target or system>
HeLa

>  <measure>
pIC50

>  <measurement>
4.25

$$$$

Return reported pIC50; argument: CC(C)(C)c1ccc(-n2cc(-c3cn([C@H]4C[C@H](O)[C@@H](CO)O4)c(=O)[nH]c3=O)nn2)cc1
5.05

Return reported pIC50; argument: O=c1[nH]c(=O)n([C@H]2C[C@H](O)[C@@H](CO)O2)cc1-c1cn(-c2ccc(Br)cc2)nn1
5.86

Return reported pIC50; argument: O=c1[nH]cc(F)c(=O)[nH]1
6.24

Return reported pIC50; argument: O=c1[nH]c(=O)n([C@H]2C[C@H](O)[C@@H](CO)O2)cc1-c1cnnn1-c1c(F)cccc1F
5.30

----------
Test system: Human alphaherpesvirus 3
assay name: microbe, parasite or virus in culture
condition description: Human alphaherpesvirus 3, 07-1, HEL
measure: EC50 (µM)
API: value field is a number in µM; no unit string.

>  <sample smiles>
O=c1[nH]c(=O)n([C@H]2C[C@H](O)[C@@H](CO)O2)cc1-c1cn(-c2ccc(Br)cc2)nn1

>  <target or system>
Human alphaherpesvirus 3

>  <EC50 (µM)>
14

$$$$

Now look at this one.
Return reported EC50; argument: O=c1[nH]c(=O)n([C@H]2C[C@H](O)[C@@H](CO)O2)cc1-c1cn(-c2ccc(Cl)cc2)nn1
48

Source listed as ChEMBL document CHEMBL1667805.
